For each entry below, report its inhibition value.
# System: Protein deacetylase HDAC6 (Homo sapiens) (UniProt Q9UBN7)
# Sequence (Q9UBN7 whole entry): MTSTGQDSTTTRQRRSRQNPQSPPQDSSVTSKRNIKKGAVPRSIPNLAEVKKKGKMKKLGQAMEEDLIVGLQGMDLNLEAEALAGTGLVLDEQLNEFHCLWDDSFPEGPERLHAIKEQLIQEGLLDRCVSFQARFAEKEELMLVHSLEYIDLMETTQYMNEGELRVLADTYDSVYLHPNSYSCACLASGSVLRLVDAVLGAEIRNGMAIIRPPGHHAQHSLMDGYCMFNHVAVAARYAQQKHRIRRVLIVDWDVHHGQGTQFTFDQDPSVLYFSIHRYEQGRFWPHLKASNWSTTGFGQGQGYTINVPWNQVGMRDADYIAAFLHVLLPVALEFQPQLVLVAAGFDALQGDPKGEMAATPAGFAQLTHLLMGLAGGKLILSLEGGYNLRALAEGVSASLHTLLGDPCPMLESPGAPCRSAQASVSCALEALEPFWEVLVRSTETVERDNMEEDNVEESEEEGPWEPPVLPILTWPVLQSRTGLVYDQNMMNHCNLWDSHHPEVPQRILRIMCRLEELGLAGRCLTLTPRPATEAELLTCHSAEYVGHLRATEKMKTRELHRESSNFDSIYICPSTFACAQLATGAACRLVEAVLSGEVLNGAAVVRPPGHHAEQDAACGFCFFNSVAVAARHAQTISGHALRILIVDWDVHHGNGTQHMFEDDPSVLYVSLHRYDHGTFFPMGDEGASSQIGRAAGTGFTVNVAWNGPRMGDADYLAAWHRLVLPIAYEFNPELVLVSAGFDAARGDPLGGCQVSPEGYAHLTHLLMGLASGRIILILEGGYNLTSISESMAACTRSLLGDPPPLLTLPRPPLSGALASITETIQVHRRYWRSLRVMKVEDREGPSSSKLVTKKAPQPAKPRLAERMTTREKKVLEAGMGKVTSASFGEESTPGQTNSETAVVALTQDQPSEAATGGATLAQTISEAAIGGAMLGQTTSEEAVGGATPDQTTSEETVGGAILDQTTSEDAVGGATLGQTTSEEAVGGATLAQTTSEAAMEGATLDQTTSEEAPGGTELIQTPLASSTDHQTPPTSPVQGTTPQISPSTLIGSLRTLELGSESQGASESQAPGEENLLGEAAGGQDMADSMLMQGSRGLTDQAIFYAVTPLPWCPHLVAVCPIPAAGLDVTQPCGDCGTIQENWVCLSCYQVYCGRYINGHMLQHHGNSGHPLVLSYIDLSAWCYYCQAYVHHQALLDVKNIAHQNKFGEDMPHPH
# Run parameters: at 10 µM
The campaign covered roughly 5,600 compounds. About 390 (7%) showed an effect of 50% or more. Many of the other results were omitted from the sample, so strong results are more common in it than they were.

input: Please give the measured inhibition for this molecule: "CC(=O)N1CCC(NC(=O)c2ccc(F)cc2)CC1"
output: 13.7%

input: Entry "COC(=O)C[C@@](O)(CCC(C)(C)O)C(=O)O[C@@H]1C(OC)=C[C@]23CCCN2CCc2cc4c(cc2[C@@H]13)OCO4" : reported inhibition = ?
output: -1.89%

input: So what's the measured inhibition for this one? "Cc1cc(C)nc(NS(=O)(=O)c2ccc(NC(=S)NC(=O)COc3ccc(Br)cc3Cl)cc2)n1"
output: 19.5%

input: I would be grateful if you could share the reported inhibition for "N[C@@H](CC(=O)N1CCn2c(nnc2C(F)(F)F)C1)Cc1n[nH]c2c(F)c(F)ccc12" .
output: 18.7%

input: Look up inhibition for this molecule: "FCc1ccc(OCCOc2ccc(Cl)cc2Cl)c(Cl)n1"
output: 61.7%

input: Given the entry "CSc1nc(N)cc(Oc2ccc(-c3nnc(Nc4cccc(C(F)(F)F)c4)[nH]3)cc2)n1" , report its measured inhibition.
output: 10.4%

input: Reported inhibition, molecule "Cc1ncc(C[n+]2csc(CCOP(=O)(O)OP(=O)(O)O)c2C)c(N)n1" : ____
output: 37.8%

input: Which inhibition is listed for C[S+](CC[C@H](N)C(=O)[O-])C[C@H]1O[C@@H](n2cnc3c(N)ncnc32)[C@H](O)[C@@H]1O (stereo partly drawn) ?
output: 5.35%
